The reported measurements were obtained from ChEMBL document CHEMBL5346878.

Molecular target: 1,4-dihydroxy-2-naphthoate octaprenyltransferase (Mycobacterium tuberculosis)
Sequence (P9WIP3 whole entry): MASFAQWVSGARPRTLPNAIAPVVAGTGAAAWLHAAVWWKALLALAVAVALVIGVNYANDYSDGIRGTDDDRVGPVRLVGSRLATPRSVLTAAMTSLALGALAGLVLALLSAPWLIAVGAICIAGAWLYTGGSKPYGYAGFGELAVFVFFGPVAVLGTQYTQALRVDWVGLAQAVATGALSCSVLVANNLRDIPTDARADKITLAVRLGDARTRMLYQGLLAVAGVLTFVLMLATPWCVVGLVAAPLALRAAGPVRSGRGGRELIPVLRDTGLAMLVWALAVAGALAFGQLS
Test: Displacement of [3H]FPP from Mycobacterium tuberculosis mc2 6230 membrane protein MenA incubated for 30 mins by liquid scintillation spectrometry
Format: cell membranes
Conditions: read-out: IC50
So basically, if IC50 comes in under 20 µM it's 1.0, and if it's 20 µM or more it's 0.0.

Reference set (2 entries):
CCCN(C)c1ccc(CN2CCC(COc3ccc(Cl)cc3)CC2)cc1 :: 0.0
CCCN(C)c1ccc(CN2CCCC(Oc3cccc(Oc4ccccc4)c3)C2)cc1 (configuration not stated) :: 0.0

Does the reported IC50 of "CCCN(C)c1ccc(CN2CCC(COc3ccc4ccccc4c3)CC2)cc1" stay below 20 µM?
0.0

is_below(IC50, 20 µM) for "CCCN(C)c1ccc(CN2CCC(COc3cccc(Cc4ccc(Cl)cc4)c3)CC2)cc1" ?
0.0

For this molecule, is IC50 lower than 20 µM? "CCCN(C)c1ccc(CN2CCC(COc3ccc(C)cn3)CC2)cc1"
0.0

Please check: IC50 for "CCCN(C)c1ccc(CN2CCC(COc3cccc(Br)c3)CC2)cc1" , strictly under 20 µM or not?
1.0

Identify whether the molecule "CCCN(C)c1ccc(CN2C[C@@H]3C[C@H]2CN3Cc2ccc(N3CCOCC3)cc2)cc1" records IC50 below 20 µM.
0.0

Dear reviewer, please state whether "CCCN(C)c1ccc(CN2CCC(CSc3ccccc3)CC2)cc1" has IC50 strictly beneath 20 µM.
1.0

Is it true that IC50 reported for "CCCN(C)c1ccc(CN2CCC(COc3cc(=O)n(C)c4ccccc34)CC2)cc1" is less than 20 µM?
0.0

Please determine if CCCN(C)c1ccc(CN2[C@@H]3CC[C@H]2CC(Oc2cccc(Oc4ccccc4)c2)C3)cc1 (some centres not stated) is below 20 µM in terms of IC50.
0.0

Here's an entry: "CCCN(C)c1ccc(CN2CCC(COc3ccccc3F)CC2)cc1" . Is its IC50 below 20 µM?
1.0

Consider the molecule "CCCN(C)c1ccc(CN2CCC(COc3cccc(C(=O)c4ccc(Cl)cc4)c3)CC2)cc1" . Is its IC50 strictly less than 20 µM?
1.0

I'd appreciate it if you could check whether "CCCN(C)c1ccc(CN2CCC(COc3nc4ccc(F)cc4s3)CC2)cc1" has IC50 smaller than 20 µM.
0.0

Consider "CCCN(C)c1ccc(CN2CCC(COc3cccc(Oc4ccccc4)c3)CC2)cc1" . Does its IC50 lie strictly below 20 µM?
1.0

Item "CCCN(C)c1ccc(CN2CCC(COc3c(F)cccc3F)CC2)cc1" : IC50 beneath 20 µM, strictly?
0.0

Problem: For the molecule "CCCN(C)c1ccc(CN2CCC(COc3ccc(F)cc3)CC2)cc1" , is IC50 under 20 µM?
0.0

Determine whether this molecule shows IC50 lower than 20 µM (ties excluded): "CCCN(C)c1ccc(CN2CCC(COc3ccccc3)CC2)cc1"
0.0

---

Tested on: Mycobacterium tuberculosis
Assay: Antibacterial activity against Mycobacterium tuberculosis mc2 6230 assessed as bacterial growth inhibition incubated for 5 days by absorbance based assay
Assay type: functional, organism-based
Details: mc2 6230, 120 h
observed_property: IC50 (µM)
# number only, unit µM dropped from output

Read the entry "CCCN(C)c1ccc(CN2CCC(COc3nc4ccc(F)cc4s3)CC2)cc1" and write its reported IC50.
11
